So I've got a bunch of compounds here, and I need their IC50 values.
# assayedTarget: Gamma-secretase
# testProtocol: Inhibition of gamma-secretase activity in H4 human neuroglioma cells by measuring amyloid beta production
# Type: cell-based
Numbers only, in nM.

Observe how each entry below is paired with its result.
CC(C)C[C@H](NC(=O)Cc1ccccc1)C(=O)N[C@@H](CC1CCCCC1)C(=O)N(C)Cc1ccccc1	39
COC(=O)[C@H](CC1CCCCC1)NC(=O)[C@H](CC(C)C)NC(=O)Cc1ccccc1	800
CCCCN(C)C(=O)[C@H](CC1CCCCC1)NC(=O)[C@H](CC(C)C)NC(=O)Cc1ccc(N)cc1	1100

Request: Given the entry CON(C)C(=O)[C@H](CC1CCCCC1)NC(=O)[C@H](CC(C)C)NC(=O)Cc1ccccc1 , what IC50 was observed with Gamma-secretase?
Response: 130

* * *

# assayedTarget: Gamma-secretase
# testProtocol: Inhibition of gamma-secretase activity in H4 human neuroglioma cells by measuring amyloid beta production
# Format: cell-based
So I've got a bunch of compounds here, and I need their pIC50 values.
Answers are plain numbers, as −log10 of the molar value.

CCCCN(C)C(=O)[C@H](CC1CCCCC1)NC(=O)[C@H](CC(C)C)NC(=O)[C@@H](OC)c1ccccc1	5.70

Okay, next one:
Request: Suppose we examine the compound CCCCN(C)C(=O)[C@H](CC1CCCCC1)NC(=O)[C@H](CC(C)C)NC(=O)c1ccccc1 ; what pIC50 value has been reported?
Response: 5.49

* * *

So I've got a bunch of compounds here, and I need their log10(IC50) values.
# assayedTarget: Gamma-secretase
# testProtocol: Inhibition of gamma-secretase activity in H4 human neuroglioma cells by measuring amyloid beta production
# Format: cell-based
Heads up: the numbers are on a log10 scale; they represent IC50 in µM.

CCCCN(C)C[C@H](CC1CCCCC1)NC(=O)[C@H](CC(C)C)NC(=O)Cc1ccccc1	0.23
CC(C)C[C@H](NC(=O)Cc1ccccc1)C(=O)N[C@@H](CC1CCCCC1)C(=O)N(C)CC(C)C	-1.89

I'm hoping you can list log10(IC50) for every compound here, please.
1. CCCCN(C)C(=O)[C@H](CC1CCCCC1)NC(=O)[C@H](CC(C)C)NC(=O)Cc1cc(C(F)(F)F)cc(C(F)(F)F)c1
2. CCCCN(C)C(=O)[C@H](CC1CCCCC1)NC(=O)[C@H](CC(C)C)NC(=O)Cc1ccccc1

Response:
1: -0.39; 2: -1.77

I'm hoping you can list log10(IC50) for every compound here, please.
1. CC(C)C[C@H](NC(=O)Cc1ccccc1)C(=O)N[C@@H](CC1CCCCC1)C(=O)N(C)C
2. CCCCN(C)C(=O)[C@H](CC1CCCCC1)NC(=O)[C@H](Cc1ccccc1)NC(=O)Cc1cc(F)cc(F)c1
3. CC(C)CCC(=O)[C@H](CC1CCCCC1)NC(=O)[C@H](CC(C)C)NC(=O)Cc1ccccc1
4. CCCCN(C)C(=O)[C@H](CC1CCCCC1)NC(=O)[C@H](CC(C)C)NC(=O)C(O)(O)c1ccccc1
5. CCCCN(CC)C(=O)[C@H](CC1CCCCC1)NC(=O)[C@H](CC(C)C)NC(=O)Cc1ccccc1

Response:
1. -0.99
2. 0.38
3. -0.52
4. -3.00
5. -1.26

I'm hoping you can list log10(IC50) for every compound here, please.
1. CCCCN(C)C(=O)[C@H](CC1CCCCC1)NC(=O)[C@H](CC(C)C)NC(=O)Cc1ccc(F)cc1
2. CCCCN(C)C(=O)[C@@H](CC1CCCCC1)NC(=O)[C@H](CC(C)C)NC(=O)Cc1ccccc1

Response:
[-1.44, 0.00]
